Data origin: PubChem BioAssay

Experiment: PSAC antagonists in infected red cells, primary screen, cell-based, P. falciparum Indochina, OD700, 2 h (AID 1155);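 also: lysis reports solute entry through the parasite surface anion channel PSAC; channel blockers reduce lysis of infected cells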
Settings: P. falciparum Indochina infected erythrocytes, osmotic lysis OD700; higher = more signal, called active from +8 up or from −8 down
PARAMETER MEASURED: z-score
Enter a number only.

Query: Give the measured z-score of `CC(=O)OC[C@H]1O[C@@H](ON=C(C)CCC(=O)OC[C@H]2O[C@H](C#Cc3ccccc3)C=C[C@@H]2Oc2ccc(C)cc2)[C@H](OC(C)=O)[C@@H](OC(C)=O)[C@@H]1OC(C)=O` .
Response: 1.11

Query: Give the measured z-score of `CC(C)(C)N1C(=O)[C@H]2[C@H]3[C@H](O)[C@H](O)CC(=NOC[C@@H](O)COCc4ccco4)[C@@H]3CC[C@H]2C1=O` .
Response: -0.335

Query: Give the measured z-score of `O=C1[C@H]2[C@H]3[C@H](O)[C@H](O)CC(=NO[C@@H]4O[C@H](CO)[C@@H](O)[C@H](O)[C@H]4O)[C@@H]3CC[C@H]2C(=O)N1C[C@@H]1CCCO1` .
Response: -0.963
